The reported numbers originate from patent US20210267944A1.

- PROTOCOL_DETAILS: clinical
- CONDITION_DETAILS: human, in vivo, Plasma level concentration, Patient 16, Treatment; 60 min
Structures can show the parent of a compound that is named as a salt.

COMPOUND: Cc1cccc([C@H](C)c2cnc[nH]2)c1C [dexmedetomidine hydrochloride]
concentration at 60 min [ng/mL]: 0.0679

----------
- PROTOCOL_DETAILS: clinical
- CONDITION_DETAILS: human, in vivo, Plasma level concentration, Patient 1, Treatment; 30 min
Where a name gives a salt, the structure may show the parent alone.

COMPOUND: Cc1cccc([C@H](C)c2cnc[nH]2)c1C [dexmedetomidine hydrochloride]
concentration at 30 min [ng/mL]: 0.0147
